These measurements were taken from patent US20230265151A1.

Biological target: T1, human glucose-dependent insulinotropic polypeptide (GIP) receptor (human) (UniProt P48546)
T1 sequence (looked up): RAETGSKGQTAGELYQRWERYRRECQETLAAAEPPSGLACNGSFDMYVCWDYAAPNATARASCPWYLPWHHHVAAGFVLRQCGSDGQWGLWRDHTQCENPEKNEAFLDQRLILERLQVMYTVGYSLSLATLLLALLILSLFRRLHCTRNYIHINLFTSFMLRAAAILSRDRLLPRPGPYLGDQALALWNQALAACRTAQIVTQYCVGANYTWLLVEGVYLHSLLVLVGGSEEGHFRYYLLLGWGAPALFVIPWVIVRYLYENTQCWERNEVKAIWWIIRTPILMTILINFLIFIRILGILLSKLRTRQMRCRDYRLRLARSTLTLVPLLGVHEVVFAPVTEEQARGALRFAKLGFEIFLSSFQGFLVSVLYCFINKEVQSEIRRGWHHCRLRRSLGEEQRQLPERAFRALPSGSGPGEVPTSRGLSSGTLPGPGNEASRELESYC
Assay: cell-based or functional assay
readout type: cAMP EC50 (nM)
Answer in nM, number only, no unit symbol.

Take a look at these entries with their results.
INSERT INTO assay_data (binder, recorded_measurement) VALUES
  ('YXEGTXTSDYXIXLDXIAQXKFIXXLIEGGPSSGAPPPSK (Y-Aib-EGT-αMeF(2F)-TSDY-Aib-I-αMeL-LD-Orn-IAQ-Aib-K((2-[2-(2-Amino-ethoxy)-ethoxy]-acetyl)2-(γ-Glu)-(10-(4-carboxyphenoxy)decanoyl))FI-(D-Glu)-αMeY-LIEGGPSSGAPPPSK((2-[2-(2-Amino-ethoxy)-ethoxy]-acetyl)2-(γ-Glu)-(10-(4-carboxyphenoxy)decanoyl))-NH2) [Example 241]', 0.0213),
  ('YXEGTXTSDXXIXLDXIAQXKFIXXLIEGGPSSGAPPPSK (Y-Aib-EGT-αMeF(2F)-TSD-4Pal-Aib-I-αMeL-LD-Orn-IAQ-Aib-K(2-[2-(2-Amino-ethoxy)-ethoxy]-acetyl)2-(γ-Glu)-(11-(4-carboxyphenoxy)undecanoyl)FI-(D-Glu)-αMeY-LIEGGPSSGAPPPSK((2-[2-(2-Amino-ethoxy)-ethoxy]-acetyl)2-(γ-Glu)-(11-(4-carboxyphenoxy)undecanoyl)-NH2)) [Example 242]', 0.0197);

## Task Look at this binder and give its reported cAMP EC50. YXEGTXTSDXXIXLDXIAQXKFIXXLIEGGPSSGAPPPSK (Y-Aib-EGT-αMeF(2F)-TSD-4Pal-Aib-I-αMeL-LD-Orn-IAQ-Aib-K((2-[2-(2-Amino-ethoxy)-ethoxy]-acetyl)2-(γ-Glu)-(10-(4-carboxyphenoxy)decanoyl))FI-(D-Glu)-αMeY-LIEGGPSSGAPPPSK((2-[2-(2-Amino-ethoxy)-ethoxy]-acetyl)2-(γ-Glu)-(10-(4-carboxyphenoxy)decanoyl))-NH2) [Example 248]
## Result 0.0176

## Task Can you share its cAMP EC50? I mean this binder: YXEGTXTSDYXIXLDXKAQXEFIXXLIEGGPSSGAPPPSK (Y-Aib-EGT-αMeF(2F)-TSDY-Aib-I-αMeL-LD-Orn-K((2-[2-(2-Amino-ethoxy)-ethoxy]-acetyl)2-(γ-Glu)-(10-(4-carboxyphenoxy)decanoyl))AQ-Aib-EFI-(D-Glu)-αMeY-LIEGGPSSGAPPPSK((2-[2-(2-Amino-ethoxy)-ethoxy]-acetyl)2-(γ-Glu)-(10-(4-carboxyphenoxy)decanoyl))-NH2) [Example 238]
## Result 0.0214

## Task Returns the measured cAMP EC50 for the input binder. Input: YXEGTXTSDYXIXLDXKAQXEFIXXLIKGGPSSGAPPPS (Y-Aib-EGT-αMeF(2F)-TSDY-Aib-I-αMeL-LD-Orn-K((2-[2-(2-Amino-ethoxy)-ethoxy]-acetyl)2-(γ-Glu)-(10-(4-carboxyphenoxy)decanoyl))AQ-Aib-EFI-(D-Glu)-αMeY-LIK((2-[2-(2-Amino-ethoxy)-ethoxy]-acetyl)2-(γ-Glu)-(10-(4-carboxyphenoxy)decanoyl))GGPSSGAPPPS-NH2) [Example 237]
## Result 0.0186

## Task Need cAMP EC50, item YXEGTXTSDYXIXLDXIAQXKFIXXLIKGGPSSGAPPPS (Y-Aib-EGT-αMeF(2F)-TSDY-Aib-I-αMeL-LD-Orn-IAQ-Aib-K((2-[2-(2-Amino-ethoxy)-ethoxy]-acetyl)2-(γ-Glu)-CO-(CH2)12-CO2H)Fl-(D-Glu)-αMeY-LIK((2-[2-(2-Amino-ethoxy)-ethoxy]-acetyl)2-(γ-Glu)-CO-(CH2)12-CO2H)GGPSSGAPPPS-NH2) [Example 234]
## Result 0.0182

## Task # lookup: cAMP EC50 of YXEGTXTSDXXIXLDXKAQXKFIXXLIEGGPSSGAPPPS (Y-Aib-EGT-αMeF(2F)-TSD-4Pal-Aib-I-αMeL-LD-Orn-K((2-[2-(2-Amino-ethoxy)-ethoxy]-acetyl)2-(γ-Glu)-(10-(4-carboxyphenoxy)decanoyl))AQ-Aib-K((2-[2-(2-Amino-ethoxy)-ethoxy]-acetyl)2-(γ-Glu)-(10-(4-carboxyphenoxy)decanoyl))FI-(D-Glu)-αMeY-LIEGGPSSGAPPPS-NH2) [Example 243]
## Result 0.0154
